- test_name: qHTS Assay for Lipid Storage Modulators in Drosophila S3 Cells;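 as to cell number change: cells counted by Cell Tracker Red CMTPX staining in the red channel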
- condition_details: BODIPY lipid droplet fluorescence, 18-24 h, cells fed with added oleic acid; measured here: cell count max response
The whole screen tested about 320,000 compounds, of which about 2,100 (0.66%) were called active. About 53% were inconclusive and are not listed. The entries come from a sample that favours actives as a whole.
cell number change reference
Dear colleague, please return just the value in %, with no unit written.

Below are worked cases with known answers.
INSERT INTO assay_data (compound, val) VALUES
  ('Cc1ccc(CNC(=O)Cc2nc3nc(C)cc(C)n3n2)cc1', 1.61),
  ('Cc1cc(C)n(-c2nnc(C)n2/N=C/c2ccc(O)cc2)n1', -6.41),
  ('Cc1ccnc(NS(=O)(=O)c2cccc([N+](=O)[O-])c2)c1', 3.2),
  ('O=C(Nc1ccc(F)cc1)C1CCCN(S(=O)(=O)c2ccc3[nH]c(=O)ccc3c2)C1 (stereo not drawn)', 23.9),
  ('Cc1nn(-c2ccccc2)c(Cl)c1C(=O)N1CCN(c2ncnc3c2cnn3-c2ccccc2)CC1', -25.9),
  ('CC1(C)C2CCC(C2)C1(C)NC(=O)C[N+](C)(C)C (stereo not drawn)', 7.74),
  ('Oc1ccc[n+](CCCCC[n+]2cccc(O)c2)c1', -10),
  ('CCOCCCNCC(=O)NC1(C)C2CCC(C2)C1(C)C (stereo not drawn)', -12.8),
  ('C(C#CCCCCCCCCC[n+]1ccccc1)#CCCCCCCCCC[n+]1ccccc1', 2.42),
  ('CCn1ccnc1CN1CCC(n2nccc2NC(=O)CCc2ccccc2)CC1', -1.05);

Which cell number change is reported for this compound? `O=C(O)CCCCCCCCCC[n+]1ccccc1` 3.19

Any idea what its cell number change is? The compound is `COc1ccc(OC)c(NC(=O)CN(Cc2ccc(Cl)cc2)S(C)(=O)=O)c1` 1.52

I would be grateful if you could share the reported cell number change for CC(C)COc1ccccc1C(=O)NC(CO)C(=O)O (stereo not drawn) . -5.46

Param item = `COc1ccc(OC)c(NC(=O)CN(Cc2ccc(F)cc2)C2CCCCC2)c1` ; retrieve measured cell number change. 6.76

Form field: reported cell number change of `CCn1c(SCC(=O)Nc2nccs2)nnc1-c1ccc(C)cc1` -13.5

Can you share its cell number change? I mean this compound: `CCCCn1c(CN2CCN(c3ccc(F)cc3)CC2)nc2c1c(=O)n(C)c(=O)n2C` 2.55

Entry `O=C(CCNS(=O)(=O)c1ccccc1C(F)(F)F)N1CCN(C(c2ccccc2)c2ccccc2)CC1` has what cell number change? 9.11

Can you share its cell number change? I mean this compound: O=C(NCC1CCCO1)c1ccc(NS(=O)(=O)c2cccc([N+](=O)[O-])c2)cc1 (stereo not drawn) 5.5

====

- test_name: qHTS Assay for Lipid Storage Modulators in Drosophila S3 Cells;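 as to cell number change: cells counted by Cell Tracker Red CMTPX staining in the red channel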
- condition_details: BODIPY lipid droplet fluorescence, 18-24 h, cells fed with added oleic acid; measured here: cell count max response
Screen size: about 320,000 compounds; about 2,100 (0.66%) were called active. About 53% were inconclusive and are not listed. The full list was thinned out, with actives kept by preference.
// reported cell number change per item
Just the number in %, nothing appended.

Solved entries:
INSERT INTO assay_data (compound, val) VALUES
  ('COc1cccc(N2C(=NC(=O)C3CCCCC3)SC3CS(=O)(=O)CC32)c1 (stereo unspecified)', -4.58),
  ('O=C(NCc1cccc(Cl)c1)c1cccc(C(F)(F)F)c1', -1.35),
  ('COc1ccc(OC)c(NC(=O)NCCCCc2ccccc2)c1', -13.4),
  ('CC(=O)c1cccc(NC(=O)c2ccc(OC3CSC3)cc2)c1', 14.6),
  ('CC(C)NC(=O)c1ccc(OC2CSC2)cc1', 2.39);

I am curious: what cell number change value has been reported for `Cc1ccc(N2C(=O)N3[C@H](c4cccc(C)c4)[C@@H]4C(=O)N(Cc5ccccc5)C(=O)[C@@H]4[C@]3(C)C2=O)cc1` ? -18.1

Name the recorded cell number change for `CC(C)Cn1c(=O)c2sccc2n2c(CCCC(=O)NC3CCN(Cc4ccccc4)CC3)nnc12` . 6.76

Entry `COc1ccccc1CNC(=O)CCCc1nnc2n(C)c(=O)c3sccc3n12` has what cell number change? 11.8

Recorded cell number change for `Cc1cc(=O)oc2cc(Oc3ncccc3[N+](=O)[O-])ccc12` , please? 13.9

Please report the recorded cell number change for `Cc1cccc([C@@H]2[C@@H]3C(=O)N(Cc4ccccc4)C(=O)[C@@H]3[C@]3(C)C(=O)N(c4cccc(Cl)c4)C(=O)N23)c1` . -9.71

====

- test_name: qHTS Assay for Lipid Storage Modulators in Drosophila S3 Cells
- condition_details: BODIPY lipid droplet fluorescence, 18-24 h, cells fed with added oleic acid; series mostly up to 46.1 µM
Out of some 320,000 compounds screened, about 2,100 (0.66%) were called active. Not shown: some 53% with an inconclusive outcome. Calls come from the whole dose curve; as a rule, active = well fitted inhibition curve with a large enough effect in the signal ratio, with a control signal flat (not every such curve was filed as active); inconclusive = small, poorly fitted or top-dose-only effect, or effect the other way, or a change in a side signal; inactive = flat fitted curve, though single readings scatter; the % refers to the signal ratio. This excerpt belongs to a sample that is enriched for actives.
Form entry, call: pick from y = active, n = inactive

The following molecules have reported results that may help.
INSERT INTO assay_data (molecule, discrete_label) VALUES
  ('O=C(Nc1cc(S(=O)(=O)N2CCOCC2)ccc1O)c1ccco1', 'n'),
  ('CCOC(=O)C(NC(C)=O)(Nc1ccc(F)cc1)C(F)(F)F (stereo not given)', 'n');

What was the test verdict on `CS/C(=N/S(=O)(=O)c1ccc(C)cc1)c1ccccc1` ? n

What call does the record list for `COc1ccc(CCNC(=O)COc2ccc(S(=O)(=O)N3CCOCC3)cc2)cc1` ? n

Lab log entry: `O=C(c1ccc(F)cc1)C1CCN(C(=O)Nc2ccc(F)cc2F)CC1` — outcome as called in the assay? n

Hi, do you know how `CC(=O)NCCc1ccc(S(=O)(=O)N2CCOCC2)cc1` came out in this test? y

What outcome does the record of this test show for `Cc1ccc(N/C(CSC(N)=O)=N/S(=O)(=O)c2ccccc2)cc1` ? y

Dear all, I need the recorded test outcome for `C/C(=N\NC(=O)CCc1ccc(S(=O)(=O)N2CCOCC2)cc1)c1ccccc1Cl` , thank you. n

Returns: the outcome recorded for `CCCCc1ccc(CC(=O)Nc2cc(S(=O)(=O)N3CCOCC3)ccc2O)cc1` in this assay. y

In this assay, the call recorded for `O=C(c1c(F)cccc1F)N(C1CCCCC1)C1CCCCC1` was what? n

Please state the recorded outcome for this molecule: `C/C(=N\NC(=O)c1cccc(S(=O)(=O)N2CCOCC2)c1)c1ccc(OC(F)F)cc1` n

What is the recorded call for this molecule in the test? `O=C(CCCCCNC(=O)N1CCn2c1nc1ccccc12)N[C@@H](C(=O)O)c1ccccc1` n

====

- test_name: qHTS Assay for Lipid Storage Modulators in Drosophila S3 Cells
- condition_details: BODIPY lipid droplet fluorescence, 18-24 h, cells fed with added oleic acid; series mostly up to 46.1 µM
The campaign covered roughly 320,000 compounds. About 2,100 (0.66%) were called active. About 53% were inconclusive and are not listed. Calls come from the whole dose curve; as a rule, active = well fitted inhibition curve with a large enough effect in the signal ratio, with a control signal flat (not every such curve was filed as active); inconclusive = small, poorly fitted or top-dose-only effect, or effect the other way, or a change in a side signal; inactive = flat fitted curve, though single readings scatter; the % refers to the signal ratio. This excerpt belongs to a sample that is enriched for actives.
I would appreciate it if you answered using one of these outcomes: active, inactive

Below, 2 compounds whose answers are already recorded.
INSERT INTO measurements (compound, discrete_label) VALUES
  ('CC(C)NS(=O)(=O)c1ccc(CCC(=O)NCc2ccccn2)cc1', 'inactive'),
  ('O=C(O)c1cccc(S(=O)(=O)Nc2ccc3oc(=O)sc3c2)c1', 'inactive');

Record lookup: outcome of this test for `CC1CCN(c2cc(C#N)c(C#N)cc2[N+](=O)[O-])CC1` ? active

Outcome logged for `Cc1cc(O)c(C(C)C)cc1NS(=O)(=O)c1ccccc1` in this assay: inactive

Recorded call for CCOC(=O)C(N)CSC1CC(=O)N(c2ccc(C(=O)OC)cc2)C1=O (configuration not stated) ? inactive

Could you check what this test reported for `CN(C)CCC1CCN(c2cc(C#N)c(C#N)cc2[N+](=O)[O-])CC1` ? inactive

Recorded test call requested for CCOC(=O)C(N)CSC1CC(=O)N(c2ccc(OC)cc2)C1=O (configuration not stated) active

====

- test_name: qHTS Assay for Lipid Storage Modulators in Drosophila S3 Cells
- condition_details: BODIPY lipid droplet fluorescence, 18-24 h, cells fed with added oleic acid; series mostly up to 46.1 µM
In all, about 320,000 compounds went through this assay and about 2,100 (0.66%) were called active. Not shown: some 53% with an inconclusive outcome. The call rests on the fitted dose curve; in most records, active means well fitted inhibition curve with a large enough effect in the signal ratio, with a control signal flat (not every such curve was filed as active); inconclusive means small, poorly fitted or top-dose-only effect, or effect the other way, or a change in a side signal; inactive means flat fitted curve, though single readings scatter; the % refers to the signal ratio. What follows is part of a selection rich in actives, with near analogues and random picks from the rest.
One label from this list, please: active, inactive

INSERT INTO results (molecule, discrete_label) VALUES
  ('Nc1ncc(-c2nnnn2-c2ccc(Cl)cc2)c(-c2ccc(Cl)cc2)n1', 'inactive');

Could you check what this test reported for `CCN1C(=O)N(c2ccc(C(C)=O)cc2)S(=O)(=O)c2ccccc21` ? inactive

// param item: `C=CCOc1ccccc1CN(CCc1ccccc1)C(=O)c1cccc(S(C)(=O)=O)c1` ; yields the recorded call active

Which outcome did this test record for the molecule `CCN1c2ccccc2S(=O)(=O)c2ccccc21` ? active

Outcome? `CS(=O)(=O)Cc1ccc(C(=O)N(CCc2ccccc2)Cc2ccccc2)cc1` inactive

Each molecule tested received a call. Report the one for `Cc1cc(C)nc(SCc2cn3c(C)cccc3n2)n1` . inactive

Lab log entry: `CCCOc1ccc(C(=O)O/N=C(\CC)c2ccc(C)cc2)cc1` — outcome as called in the assay? inactive

Check the results log: what was the call for `Cc1nnc(NC(=O)CSc2nc3ccccc3o2)s1` ? inactive

Call for entry `CCOC(=O)CSc1nc2cc(S(=O)(=O)Nc3ccccc3OC)ccc2o1` : active

Per the records of this test, what outcome belongs to Cc1ccc(CS(=O)Cc2ccc(C(=O)N3CCN(c4ccccc4)CC3)o2)cc1 (stereo unspecified) ? inactive

So what was the verdict on CCOC(=O)C1CCN(CC(O)COCc2ccccc2)CC1 (stereo unspecified) in this test? inactive
